testTarget: recombinant human PDK1 (Homo sapiens)
Construct: containing amino acids 51-556 of the human PDK1 enzyme; made in house; host or cells: Sf9 insect cells
Sequence (O15530 51-556): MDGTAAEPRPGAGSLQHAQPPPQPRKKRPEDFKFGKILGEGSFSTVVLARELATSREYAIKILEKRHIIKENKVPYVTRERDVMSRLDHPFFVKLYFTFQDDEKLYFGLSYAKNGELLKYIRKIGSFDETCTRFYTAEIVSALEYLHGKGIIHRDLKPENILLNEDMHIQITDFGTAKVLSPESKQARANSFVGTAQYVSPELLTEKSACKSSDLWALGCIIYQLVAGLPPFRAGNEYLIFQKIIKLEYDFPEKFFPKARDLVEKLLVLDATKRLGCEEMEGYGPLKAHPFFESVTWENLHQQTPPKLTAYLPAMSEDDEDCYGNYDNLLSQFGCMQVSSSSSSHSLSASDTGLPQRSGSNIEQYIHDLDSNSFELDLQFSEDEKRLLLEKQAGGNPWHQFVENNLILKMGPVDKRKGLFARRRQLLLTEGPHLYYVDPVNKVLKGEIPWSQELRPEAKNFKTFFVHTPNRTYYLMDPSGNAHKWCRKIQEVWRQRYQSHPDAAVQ
assayExplanation: PDK1 IMAP fluorescence polarization assay (inhibition of peptide substrate phosphorylation)
Format: biochemical
conditionContext: Table 6; 10 nM PDK1 enzyme, 100 nM peptide substrate, 100 nM PIFtide, 2.5 uM ATP, 1.5 hours
recordedMetric: IC50

The cases that follow already have their IC50 on record.
Looking up "Cc1cc(-c2c[nH]c(C(=O)Nc3cccc(F)c3N3CCC(C(=O)NCC4(N)CCCC4)CC3)n2)ccn1" , I see its IC50 listed as 51 to 250 nM

The reported IC50 of the molecule "COc1cc(-c2c[nH]c(C(=O)Nc3cccc(F)c3N3CCC[C@@H](N)C3)n2)ccn1" was 51 to 250 nM

Lookup result for "Cc1cc(-c2c[nH]c(C(=O)Nc3cccc(F)c3N3CCC(C(=O)N4CCC(O)(c5ccccn5)CC4)CC3)n2)ccn1" ; measured IC50: 1000 to 5000 nM

// field: IC50; key: "CC(=O)c1ccc(-c2c[nH]c(C(=O)Nc3cccc(F)c3N3CCC(CN)CC3)n2)s1" ; value = 1000 to 5000 nM

Form: molecule = "N[C@@H]1CCCN(c2c(F)cccc2NC(=O)c2nc(-c3ccnc(C4CC4)c3)c[nH]2)C1" ; IC50 = 51 to 250 nM

Next:
Item: "Nc1ccc(N2CCC[C@@H](N)C2)c(NC(=O)c2nc(Br)c[nH]2)c1" | IC50: 51 to 250 nM

----------
testTarget: recombinant human PDK1 (Homo sapiens, UniProt O15530)
Construct: containing amino acids 51-556 of the human PDK1 enzyme; made in house; host or cells: Sf9 insect cells
Sequence (O15530 51-556): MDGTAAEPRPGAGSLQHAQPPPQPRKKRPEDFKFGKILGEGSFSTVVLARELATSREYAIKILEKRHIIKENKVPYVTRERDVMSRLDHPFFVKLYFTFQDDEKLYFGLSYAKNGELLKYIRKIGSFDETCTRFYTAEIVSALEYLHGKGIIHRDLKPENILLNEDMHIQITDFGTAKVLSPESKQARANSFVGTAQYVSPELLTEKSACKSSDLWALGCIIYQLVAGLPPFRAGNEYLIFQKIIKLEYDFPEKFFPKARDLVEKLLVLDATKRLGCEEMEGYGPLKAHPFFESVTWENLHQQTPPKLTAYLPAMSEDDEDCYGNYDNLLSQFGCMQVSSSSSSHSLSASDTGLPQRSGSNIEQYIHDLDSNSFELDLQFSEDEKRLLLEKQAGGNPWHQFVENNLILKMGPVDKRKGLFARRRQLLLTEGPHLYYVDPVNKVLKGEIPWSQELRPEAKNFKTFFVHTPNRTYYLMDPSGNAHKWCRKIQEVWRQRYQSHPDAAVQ
assayExplanation: PDK1 IMAP fluorescence polarization assay (inhibition of peptide substrate phosphorylation)
Type: biochemical
conditionContext: Table 6; 10 nM PDK1 enzyme, 100 nM peptide substrate, 100 nM PIFtide, 2.5 uM ATP, 1.5 hours
recordedMetric: IC50

Looking up "Cc1cc(-c2c[nH]c(C(=O)Nc3cccc(F)c3N3CCC(C(=O)N4CCC5(CC4)CNC5)CC3)n2)ccn1" , I found its IC50 recorded as 51 to 250 nM

Item: "Cc1cc(-c2c[nH]c(C(=O)Nc3cccc(F)c3N3CCC(CN(C)C)CC3)n2)ccn1" | IC50: 251 to 1000 nM

Note to self: IC50 recorded for "CN(C)CC1CCN(c2ccccc2NC(=O)c2nc(-c3ccnc(N)c3)c[nH]2)CC1" was 251 to 1000 nM

The recorded IC50 for Cc1cc(-c2c[nH]c(C(=O)Nc3cccc(F)c3N3CCC(C(=O)N4CCOC(CN)C4)CC3)n2)ccn1 (stereo not shown) is 51 to 250 nM

Memo: "COC(=O)c1cccc(-c2c[nH]c(C(=O)Nc3cccc(F)c3N3CCC(CN)CC3)n2)c1" , reported IC50: 51 to 250 nM

***
Briefly, IC50 measured for "N[C@@H]1CCCN(c2c(F)cccc2NC(=O)c2nc(-c3ccnc(-n4cccn4)c3)c[nH]2)C1" : 251 to 1000 nM

# IC50 of "NCC1CCN(c2c(F)cccc2NC(=O)c2nc(-c3cc(NCc4ccccc4)nc(N)n3)c[nH]2)CC1" = 1 to 50 nM

# IC50 (molecule: Cc1cc(-c2c[nH]c(C(=O)Nc3cccc(F)c3N3CCC(C(=O)N4CCOC(CCO)C4)CC3)n2)ccn1 (stereo not shown) ) is 251 to 1000 nM

// recorded IC50 for "CCNCCNC(=O)C1CCN(c2c(F)cccc2NC(=O)c2nc(-c3ccnc(C)c3)c[nH]2)CC1" : 251 to 1000 nM

So for "NCC1CCN(c2c(F)cccc2NC(=O)c2nc(-c3cc(C(N)=O)nc(O)n3)c[nH]2)CC1" , the logged IC50 turned out to be 1 to 50 nM

What the record says about Cc1cc(-c2c[nH]c(C(=O)Nc3cccc(F)c3N3CC4CNCC4C3)n2)ccn1 (stereo not shown) : IC50 is 1000 to 5000 nM

IC50 for "NCC1CCN(c2c(F)cccc2NC(=O)c2nc(-c3cc(NCc4ccc(F)cc4)ncn3)c[nH]2)CC1" is 51 to 250 nM

// field: IC50; key: "NCC1CCN(c2c(F)cccc2NC(=O)c2nc(-c3cc(NCc4ccc(F)c(F)c4)ncn3)c[nH]2)CC1" ; value = 51 to 250 nM

Value of IC50 reported for the molecule "N[C@@H]1CCCN(c2c(F)cccc2NC(=O)c2nc(-c3cnn(Cc4cccnc4)c3)c[nH]2)C1" is 51 to 250 nM

What the record says about "N#Cc1cccc(-c2c[nH]c(C(=O)Nc3cccc(F)c3N3CCC(CN)CC3)n2)n1" : IC50 is 251 to 1000 nM

Please fill in: IC50 reported for "CCC1(CN)CCN(c2c(F)cccc2NC(=O)c2nc(-c3ccnc(C)c3)c[nH]2)CC1" = 51 to 250 nM

Hey, just so you know, these numbers are from patent US8623857B2.
